All figures here come from patent US20250115597A1.

# run_description: Microsomal metabolic stability assay
# Assay type: in vitro ADME
# condition_label: pH 7.4; human liver microsomes, 0.5 mg/mL protein, 1 μM compound; read-out: Human LM Clint
property_measured: microsomal CLint at 1 μM

Look over these answered cases.
In [3]: df
Out[3]:
                                   molecule            result
0  [2H]C([2H])([2H])NC(=O)c1cnc(NC(=O)C2CC2)cc1Nc1csc2cnn(CC3CC3(F)F)c(=O)c12 (centres unmarked)  < 11.5 µL/min/mg
1  [2H]C([2H])([2H])NC(=O)c1cnc(NC(=O)C2CC2)cc1Nc1csc2c(Cl)cn(C([2H])([2H])[2H])c(=O)c12    18.2 µL/min/mg
2  [2H]C([2H])([2H])NC(=O)c1cnc2cc1Nc1cc(cc(-c3ncn(C)n3)c1OC)COCc1cc(F)cc(n1)N2    4.59 µL/min/mg
3  [2H]C([2H])([2H])NC(=O)c1cnc(Nc2ccn(C)n2)cc1Nc1cc(F)c2cnn(CC)c2c1OC    63.5 µL/min/mg

Next, consider the following molecule.
Query: For the molecule [2H]C([2H])([2H])NC(=O)c1cnc(NC(=O)C2CC2)cc1Nc1csc2cnn(CC(F)(F)F)c(=O)c12 , give its reported microsomal CLint at 1 μM.
Result: 6.2 µL/min/mg

* * *

# target_entity: TYK2-JH2 domain (Homo sapiens)
# Construct: IC50 on JH2 domain activity (nM)
# run_description: Binding activity test for JH2 domain of TYK2 (Tb-antibody/tracer FRET)
property_measured: IC50 (nM)
Answers are plain numbers, in nM.

Look over these answered cases.
>>> print(df.to_string())
                            compound_smiles  numeric_value
0  [2H]C([2H])([2H])NC(=O)c1cnc(NC(=O)C2CC2)cc1Nc1ccc2cnn(CC(N)=O)c2c1OC           6.29
1  [2H]C([2H])([2H])NC(=O)c1cnc(NC(=O)C2CC2)cc1Nc1ccn2ncc(OC)c2c1OC          0.385
2  [2H]C([2H])([2H])NC(=O)c1cnc(Nc2ccc(F)cn2)cc1Nc1nn(C)c2ccn(CC)c(=O)c12          0.524

I have 2 compounds here; please give me IC50 for each one.
1. [2H]C([2H])([2H])NC(=O)c1cnc(NC(=O)C2CC2)cc1Nc1ncc2cnn(CCC(F)(F)F)c2c1OC
2. [2H]C([2H])([2H])NC(=O)c1cnc(NC(=O)C2CC2)cc1Nc1ccc2ccn(CC)c2c1OC

Result:
1: 0.449; 2: 0.125

* * *

# target_entity: TYK2-JH2 domain (Homo sapiens, UniProt P29597)
# Construct: IC50 on JH2 domain activity (nM)
# Sequence (P29597 589-875 limits assumed): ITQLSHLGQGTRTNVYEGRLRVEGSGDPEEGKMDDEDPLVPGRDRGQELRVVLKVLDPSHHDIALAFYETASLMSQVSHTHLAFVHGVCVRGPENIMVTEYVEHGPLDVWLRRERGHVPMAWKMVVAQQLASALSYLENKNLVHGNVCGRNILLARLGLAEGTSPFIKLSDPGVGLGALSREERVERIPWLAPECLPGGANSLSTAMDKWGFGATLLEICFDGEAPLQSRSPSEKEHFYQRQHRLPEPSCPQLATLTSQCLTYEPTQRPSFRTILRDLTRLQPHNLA
# run_description: Binding activity test for JH2 domain of TYK2 (Tb-antibody/tracer FRET)
# condition_label: ratio JAK1-JH2 IC50 / TYK2-JH2 IC50
Can you tell me JAK1/TYK2 selectivity for the items I'm about to list?
One number for each entry.

>>> df
                            compound_smiles  numeric_value
0  [2H]C([2H])([2H])NC(=O)c1cnc(NC(=O)C2CC2)cc1Nc1ccn2ncc(CC#N)c2c1OC           28.8
1  [2H]C([2H])([2H])NC(=O)c1cnc(Nc2ccncn2)cc1Nc1ccc2cnn(C([2H])([2H])[2H])c2c1OC           33.2

Next, consider the following compound.
Query: Consider the compound [2H]C([2H])([2H])NC(=O)c1cnc(NC(=O)C2CC2)cc1Nc1ccn2ncc(OC)c2c1OC tested on TYK2-JH2 domain (Homo sapiens, UniProt P29597); state its JAK1/TYK2 selectivity.
Result: 25.0
